growth values by entry
Test system: K-562 leukemia
Experiment: NCI-60 one-dose screen, 48 h (100 = growth as untreated, 0 = no growth, -100 = all killed)
Conditions: 10 µM unless noted
About 83,000 compounds went through this panel and 20% of them were active in at least one assay; those are over-represented in the sample as a whole.
QUANTITY KIND: growth (%)

• NS(=O)(=O)c1ccc(-n2nc(C(=O)N/N=C\c3ccc(F)cc3)cc2-c2ccc(Br)cc2)cc1 = 18
• Cc1ccc(-c2nc(N3CCN(C(=O)c4ccc(OC(F)(F)F)cc4)CC3)c3ccccc3n2)cc1 = 70
• CCOc1ccc2nc(SCc3nc4n(n3)S(=O)(=O)c3ccccc3N4C)sc2c1 = 34.8
• Cc1cccc2c3c(sc12)C(c1ccc(F)cc1)C(C#N)=C(N)O3 (stereo not given) = 8.65
• Nc1ccccc1-c1cc2c(c3c1[nH]c1ccccc13)CCCCC2 = 98

###

Test system: SK-MEL-5 melanoma
Experiment: NCI-60 one-dose screen, 48 h
Details: 10 µM unless noted
Compounds without any hit were thinned out: in the full panel of roughly 83,000, 20% have a hit. Calls of active or inactive are those of the source. Rule for the calls: active = growth percent below 10; inactive = the rest.
Possible outcomes: class 1 for active, class 0 for inactive

- CC/C=C\C[C@@H]1C/C=C2/C(=O)C=C[C@H]2C/C=C\CCCC(=O)O1: class 1
- C/C=C(\C)C(=O)N[C@H]1[C@@H](OC(C)=O)C[C@]2(C)C3CC[C@@]4(C)C(CC[C@@H]4C(C)N(C)C)C3CCC2[C@H]1O (some centres undefined): class 1
- CCOc1c(B(O)O)cccc1-c1nc2ccc3[nH]ncc3c2c2c1CCCC2: class 0
- COc1c(B(O)O)cc(F)cc1-c1nc2ccc3[nH]ncc3c2c2c1CCCC2: class 0
- NC1=NC(c2cccc(Br)c2)c2sc3ccc(Cl)cc3c2N1 (centres undefined): class 0
- CC1CN(C2CCCCC2)C(=S)N(c2ccccc2)C1=O (centres undefined): class 0
- C/C(=C\C(=O)c1ccc(Cl)cc1)c1ccc(Cl)cc1: class 0
- CC(C)C(=O)Nc1ccc(-c2nc(-c3cccc(OCCN4CCOCC4)c3)c(-c3ccnc(Br)c3)[nH]2)cc1: class 0
- CCN1C(=O)N(CC)C2Nn3c(s/c(=C4\C(=O)N(CC(C)C)c5ccccc54)c3=O)=NC21 (centres undefined): class 0

###

Tested on: SK-MEL-2 melanoma
Assay: NCI-60 one-dose screen, 48 h
Details: 10 µM unless noted
This is part of a sample that, as a whole, favours compounds with a hit. Of some 83,000 tested, about 20% had one in any assay. Active and inactive are the calls of the source. Rule for the calls: active = growth percent below 10; inactive = the rest.
Possible outcomes: active, inactive

• COc1ccc(-c2nc3sc(-c4ccccc4)cn3n2)cc1 = inactive
• CC(C)n1cnc2c(Nc3cccc(Cl)c3)nc(N[C@H]3CCCC[C@@H]3N)nc21 = inactive
• COc1ccc(-c2[nH]ncc2-c2cc3c(c(OC)c2)OCC(=O)N3)cc1 = active
• NS(=O)(=O)c1ccc(-n2nc(-c3ccc(Cl)cc3)c3ccccc3c2=O)cc1 = inactive
• CN1CCN(c2ccc(-c3cnc4c(-c5csc6ccccc56)cnn4c3)cc2)CC1 = active
• CCOC(=O)c1cn2ncnc(Oc3ccc(NC(=O)NCCN4CCOCC4)c(Cl)c3)c2c1C = inactive
• COc1ccc(C(=O)C(C)C)c2ccccc12 = inactive
• CCOC(=O)Cn1c(C)c(/C=N/NC(=O)c2cc3c(ccc4ccccc43)o2)c2ccccc21 = inactive
• COc1ccn2c(C(C)=O)cc(C(=O)c3ccc4c(c3)Sc3ccccc3N4)c2c1 = inactive
• Cc1ccc(S(=O)(=O)N/N=C/C2(c3ccccc3)CC2)cc1 = inactive
• C#Cc1cccc(NC(=O)Nc2ccccc2NC(=O)CCl)c1 = active
• COc1cc(/C=C/C(=O)/C=C/c2cc(OC)c3c(c2OC)OCO3)c(OC)c2c1OCO2 = inactive
• O=C1CSC(c2c(Cl)cccc2Cl)N1c1nc(Cl)cc(=O)[nH]1 (stereo not given) = inactive
• COc1cc2cc(Oc3ccc(NC(=O)Nc4cccc(C(F)(F)F)c4)cc3)c(C)nc2cc1OCCN1CCOCC1 = inactive
• CCOC(=O)C1=C(N)Oc2c(sc3c(C)cccc23)C1c1ccc(OC)cc1 (stereo not given) = inactive
• COc1ccc(/C=C/c2c(C(=O)/C=C/c3ccc(Cl)cc3)c(C)nc3ccccc23)cc1 = inactive
• CCOC(=O)c1sc2ncc(-c3ccc(C)cc3)n2c1C = inactive
• N#Cc1c(-c2ccc(Cl)cc2)nc2c(c(-c3ccccc3)nn2-c2ccccc2)c1-c1ccc(O)cc1 = inactive
• Cc1ccc(-c2nc(N3CCN(C(=O)c4ccc(OC(F)(F)F)cc4)CC3)c3ccccc3n2)cc1 = inactive
• CCCCOc1nc2c(C)cccc2cc1-c1cc(-c2ccc(Cl)cc2)nc(-c2ccc(Cl)cc2)c1 = inactive
• FC(F)(F)c1cc(Nc2ccc3c(OCCCN4CCOCC4)cccc3n2)ccc1Cl = inactive
• CC1=C([Se]CC(OC(=O)[C@@H](CSSC(C)(C)C)NC(=O)OC(C)(C)C)C(=O)NC(C)(C)C)C(=O)c2ccccc2C1=O (stereo not given in full) = active
• O=C(Nc1ccc(OS(=O)(=O)c2ccc(F)cc2)cc1)c1ccc(Cl)cc1 = inactive
• CCN1C(=O)N(CC)C2Nn3c(s/c(=C\c4ccc([N+](=O)[O-])cc4)c3=O)=NC21 (stereo not given) = inactive
• O=c1ccn(Cc2cn(-c3c4ccccc4nc4ccccc34)nn2)c(=O)[nH]1 = inactive
• COc1ccc2[nH]c(-c3ccccc3)c(/C=C(\C#N)S(=O)(=O)c3ccccc3)c2c1 = inactive
• COc1ccc(S(=O)(=O)n2c3ccccc3n3ncc(-c4nnc(C)o4)c23)cc1 = inactive
• CCCCCCN(CCCCCC)c1ccc(/C=C2/SC(=O)NC2=O)c(C)c1 = inactive
• COc1nc2ccc(C)cc2cc1-c1nc2c(cnn2-c2ccccc2)c(=O)[nH]1 = inactive
• C[C@H](C(=O)Nc1ccc(S(N)(=O)=O)cc1)S(=O)(=O)c1ccccc1 = inactive
• COc1ccc2c(c1)c(-c1ccc(-c3cn(C)c4ccc(OC)cc34)o1)cn2C = inactive
• CC1Cc2c(ncn3c(-c4ccc(F)cc4)nnc23)N(C)c2ccccc21 (stereo not given) = inactive
• CN(C)c1ccc(/C=N\Nc2cc(=O)[nH]c3ccc(Cl)cc23)cc1 = inactive
• COc1cc(C)c(Cc2cnc(N)nc2N)cc1OC = inactive
• CNCCCNc1nc2ccccc2c2c(=O)c3cc(OC)ccc3sc12 = inactive
• NCCNc1nc2ccccc2c2c(=O)c3cc(F)ccc3sc12 = inactive
• O=C(Nc1ccc(F)cc1F)c1cc(F)ccc1O = active
• COc1ccc(-n2c(N)c(-c3nc4ccccc4[nH]3)cc(C#N)c2=O)cc1 = inactive
• Cc1ccc(NC2=C(Cl)C(=O)c3nc(C)ccc3C2=O)cc1 = active
• O=C(/C=C/c1cccc2ccccc12)c1ccc(NC(=O)c2ccccc2CN2C(=O)c3ccccc3C2=O)cc1 = inactive
